- assayed.target: hITK enzyme (FLAG-tagged full-length hITK) (Homo sapiens)
- Construct: strongly expressing FLAG-tagged full-length hITK in Sf9 cells; FLAG; made in house; host or cells: Sf9 insect cells (ITK); Escherichia coli (GST-SLP76 substrate)
- Sequence (Q08881 whole entry): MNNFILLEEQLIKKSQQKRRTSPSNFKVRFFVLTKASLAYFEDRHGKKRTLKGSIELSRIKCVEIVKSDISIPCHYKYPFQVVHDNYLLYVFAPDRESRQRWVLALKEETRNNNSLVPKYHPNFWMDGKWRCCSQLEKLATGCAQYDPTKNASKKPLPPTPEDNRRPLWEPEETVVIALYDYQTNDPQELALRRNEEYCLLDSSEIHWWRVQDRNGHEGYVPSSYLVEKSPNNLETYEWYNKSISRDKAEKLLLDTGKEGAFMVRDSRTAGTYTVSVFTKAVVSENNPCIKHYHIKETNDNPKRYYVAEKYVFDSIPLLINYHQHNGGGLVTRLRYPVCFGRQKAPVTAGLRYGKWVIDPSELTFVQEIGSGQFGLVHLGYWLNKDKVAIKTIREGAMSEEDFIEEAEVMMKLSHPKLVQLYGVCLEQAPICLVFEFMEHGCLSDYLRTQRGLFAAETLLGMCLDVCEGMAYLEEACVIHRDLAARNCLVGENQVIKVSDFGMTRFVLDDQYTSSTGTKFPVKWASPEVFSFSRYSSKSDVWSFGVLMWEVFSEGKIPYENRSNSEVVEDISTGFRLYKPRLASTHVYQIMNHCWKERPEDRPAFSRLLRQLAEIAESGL
- assay.text: ITK inhibitory activity (HTRF kinase assay, biotinylated GST-SLP76 substrate)
- Assay type: biochemical
- reported.conditions: IC50 calculated from the 2 test compound concentrations sandwiching 50% ITK inhibitory rate

>  <compound>
CN(C(=O)C1CCOC1(C)C)c1ccc2cc(-c3n[nH]c4c3CCC(C)(C)C4)[nH]c2c1 (stereo not shown)

>  <assayed.target>
hITK enzyme (FLAG-tagged full-length hITK) (Homo sapiens)

>  <unit.symbol>
nM

>  <reading.qualifier>
=

>  <IC50>
10

$$$$
>  <compound>
CN(C(=O)C1CCCO1)c1ccc2cc(-c3n[nH]c4c3CCC(C)(C)C4)[nH]c2c1 (stereo not shown)

>  <assayed.target>
hITK enzyme (FLAG-tagged full-length hITK) (Homo sapiens)

>  <unit.symbol>
nM

>  <reading.qualifier>
<

>  <IC50>
3

$$$$
>  <compound>
CC1(C)CCc2c(-c3cc4ccc(N5CCCCC5=O)cc4[nH]3)n[nH]c2C1

>  <assayed.target>
hITK enzyme (FLAG-tagged full-length hITK) (Homo sapiens)

>  <unit.symbol>
nM

>  <reading.qualifier>
=

>  <IC50>
33

$$$$
>  <compound>
CCN(c1ccc2cc(-c3n[nH]c4c3CCC(C)(C)C4)[nH]c2c1)C(=O)[C@H]1CC[C@@H](OC)CC1

>  <assayed.target>
hITK enzyme (FLAG-tagged full-length hITK) (Homo sapiens)

>  <unit.symbol>
nM

>  <reading.qualifier>
=

>  <IC50>
7

$$$$
>  <compound>
CN(C(=O)CN1CCCCCCC1=O)c1ccc2cc(-c3n[nH]c4c3CCC(C)(C)C4)[nH]c2c1

>  <assayed.target>
hITK enzyme (FLAG-tagged full-length hITK) (Homo sapiens)

>  <unit.symbol>
nM

>  <reading.qualifier>
=

>  <IC50>
2

$$$$
>  <compound>
CN(C(=O)CC1CCCC1)c1ccc2cc(-c3n[nH]c4c3CCC(C)(C)C4)[nH]c2c1

>  <assayed.target>
hITK enzyme (FLAG-tagged full-length hITK) (Homo sapiens)

>  <unit.symbol>
nM

>  <reading.qualifier>
=

>  <IC50>
10

$$$$
>  <compound>
CN(C(=O)CCN1CCCC1=O)c1ccc2cc(-c3n[nH]c4c3CCC(C)(C)C4)[nH]c2c1

>  <assayed.target>
hITK enzyme (FLAG-tagged full-length hITK) (Homo sapiens)

>  <unit.symbol>
nM

>  <reading.qualifier>
=

>  <IC50>
9

$$$$
>  <compound>
CC1(C)CCc2c(-c3cc4cc(C(=O)NC(CO)CO)ccc4[nH]3)n[nH]c2C1

>  <assayed.target>
hITK enzyme (FLAG-tagged full-length hITK) (Homo sapiens)

>  <unit.symbol>
nM

>  <reading.qualifier>
=

>  <IC50>
26

$$$$
>  <compound>
COCCN(C(=O)CC1CCC(OC)CC1)c1ccc2cc(-c3n[nH]c4c3CCC(C)(C)C4)[nH]c2c1 (stereo not shown)

>  <assayed.target>
hITK enzyme (FLAG-tagged full-length hITK) (Homo sapiens)

>  <unit.symbol>
nM

>  <reading.qualifier>
=

>  <IC50>
9

$$$$
>  <compound>
CC1(C)CCc2c(-c3cc4cc(C(=O)N5CCCC5)ccc4[nH]3)n[nH]c2C1

>  <assayed.target>
hITK enzyme (FLAG-tagged full-length hITK) (Homo sapiens)

>  <unit.symbol>
nM

>  <reading.qualifier>
=

>  <IC50>
46

$$$$
>  <compound>
CO[C@H]1CC[C@H](C(=O)N(C)c2ccc3cc(-c4n[nH]c5c4CCC(C)(C)C5)[nH]c3c2)CC1

>  <assayed.target>
hITK enzyme (FLAG-tagged full-length hITK) (Homo sapiens)

>  <unit.symbol>
nM

>  <reading.qualifier>
=

>  <IC50>
7

$$$$
>  <compound>
CO[C@@H](C)C(=O)N(C)c1ccc2cc(-c3n[nH]c4c3CCC(C)(C)C4)[nH]c2c1

>  <assayed.target>
hITK enzyme (FLAG-tagged full-length hITK) (Homo sapiens)

>  <unit.symbol>
nM

>  <reading.qualifier>
=

>  <IC50>
3

$$$$
>  <compound>
CC1(C)CCc2c(-c3cc4ccc(C(=O)Nc5ccccc5)cc4[nH]3)n[nH]c2C1

>  <assayed.target>
hITK enzyme (FLAG-tagged full-length hITK) (Homo sapiens)

>  <unit.symbol>
nM

>  <reading.qualifier>
=

>  <IC50>
334

$$$$
>  <compound>
CN(C(=O)c1cccc(C(F)(F)F)c1)c1ccc2cc(-c3n[nH]c4c3CCC(C)(C)C4)[nH]c2c1

>  <assayed.target>
hITK enzyme (FLAG-tagged full-length hITK) (Homo sapiens)

>  <unit.symbol>
nM

>  <reading.qualifier>
=

>  <IC50>
34

$$$$
>  <compound>
CC1CN(C(C)C(=O)N(C)c2ccc3cc(-c4n[nH]c5c4CCC(C)(C)C5)[nH]c3c2)CC(C)O1 (stereo not shown)

>  <assayed.target>
hITK enzyme (FLAG-tagged full-length hITK) (Homo sapiens)

>  <unit.symbol>
nM

>  <reading.qualifier>
=

>  <IC50>
5

$$$$
>  <compound>
COC(C)(C)C(=O)N(C)c1ccc2cc(-c3n[nH]c4c3CCC(C)(C)C4)[nH]c2c1

>  <assayed.target>
hITK enzyme (FLAG-tagged full-length hITK) (Homo sapiens)

>  <unit.symbol>
nM

>  <reading.qualifier>
=

>  <IC50>
22

$$$$
>  <compound>
CC(C)C(O)C(=O)N(C)c1ccc2cc(-c3n[nH]c4c3CCC(C)(C)C4)[nH]c2c1 (stereo not shown)

>  <assayed.target>
hITK enzyme (FLAG-tagged full-length hITK) (Homo sapiens)

>  <unit.symbol>
nM

>  <reading.qualifier>
=

>  <IC50>
4

$$$$
>  <compound>
CN(C(=O)CCO)c1ccc2cc(-c3n[nH]c4c3CCC(C)(C)C4)[nH]c2c1

>  <assayed.target>
hITK enzyme (FLAG-tagged full-length hITK) (Homo sapiens)

>  <unit.symbol>
nM

>  <reading.qualifier>
=

>  <IC50>
6

$$$$
>  <compound>
CC1(C)CCc2c(-c3cc4ccc(NC(=O)c5ccccc5)cc4[nH]3)n[nH]c2C1

>  <assayed.target>
hITK enzyme (FLAG-tagged full-length hITK) (Homo sapiens)

>  <unit.symbol>
nM

>  <reading.qualifier>
=

>  <IC50>
327

$$$$
>  <compound>
CN(C(N)=O)c1ccc2cc(-c3n[nH]c4c3CCC(C)(C)C4)[nH]c2c1

>  <assayed.target>
hITK enzyme (FLAG-tagged full-length hITK) (Homo sapiens)

>  <unit.symbol>
nM

>  <reading.qualifier>
=

>  <IC50>
18

$$$$
>  <compound>
CN(C(=O)CN1CCC(C)(C)C1=O)c1ccc2cc(-c3n[nH]c4c3CCC(C)(C)C4)[nH]c2c1

>  <assayed.target>
hITK enzyme (FLAG-tagged full-length hITK) (Homo sapiens)

>  <unit.symbol>
nM

>  <reading.qualifier>
=

>  <IC50>
1

$$$$
>  <compound>
CN(C)CCN(C(=O)C1CCOC1)c1ccc2cc(-c3n[nH]c4c3CCC(C)(C)C4)[nH]c2c1 (stereo not shown)

>  <assayed.target>
hITK enzyme (FLAG-tagged full-length hITK) (Homo sapiens)

>  <unit.symbol>
nM

>  <reading.qualifier>
<

>  <IC50>
3

$$$$
>  <compound>
CCN(C(=O)CC1CCC(OC)CC1)c1ccc2cc(-c3n[nH]c4c3CCC(C)(C)C4)[nH]c2c1 (stereo not shown)

>  <assayed.target>
hITK enzyme (FLAG-tagged full-length hITK) (Homo sapiens)

>  <unit.symbol>
nM

>  <reading.qualifier>
=

>  <IC50>
11

$$$$
>  <compound>
CC(C(=O)N(CCO)c1ccc2cc(-c3n[nH]c4c3CCC(C)(C)C4)[nH]c2c1)C1CCCCC1 (stereo not shown)

>  <assayed.target>
hITK enzyme (FLAG-tagged full-length hITK) (Homo sapiens)

>  <unit.symbol>
nM

>  <reading.qualifier>
=

>  <IC50>
23

$$$$
>  <compound>
CN(C(=O)Cn1ccccc1=O)c1ccc2cc(-c3n[nH]c4c3CCC(C)(C)C4)[nH]c2c1

>  <assayed.target>
hITK enzyme (FLAG-tagged full-length hITK) (Homo sapiens)

>  <unit.symbol>
nM

>  <reading.qualifier>
<

>  <IC50>
1

$$$$
>  <compound>
CCN(C(=O)C(C)C1CCOCC1)c1ccc2cc(-c3n[nH]c4c3CCC(C)(C)C4)[nH]c2c1 (stereo not shown)

>  <assayed.target>
hITK enzyme (FLAG-tagged full-length hITK) (Homo sapiens)

>  <unit.symbol>
nM

>  <reading.qualifier>
=

>  <IC50>
7

$$$$
>  <compound>
CC(C)C(CO)N(C)C(=O)c1ccc2cc(-c3n[nH]c4c3CCC(C)(C)C4)[nH]c2c1 (stereo not shown)

>  <assayed.target>
hITK enzyme (FLAG-tagged full-length hITK) (Homo sapiens)

>  <unit.symbol>
nM

>  <reading.qualifier>
=

>  <IC50>
26

$$$$
>  <compound>
CC(C(=O)N(C)c1ccc2cc(-c3n[nH]c4c3CCC(C)(C)C4)[nH]c2c1)N(CCO)CC(=O)O (stereo not shown)

>  <assayed.target>
hITK enzyme (FLAG-tagged full-length hITK) (Homo sapiens)

>  <unit.symbol>
nM

>  <reading.qualifier>
=

>  <IC50>
4

$$$$
>  <compound>
COCC(=O)N(CCO)c1ccc2cc(-c3n[nH]c4c3CCC(C)(C)C4)[nH]c2c1

>  <assayed.target>
hITK enzyme (FLAG-tagged full-length hITK) (Homo sapiens)

>  <unit.symbol>
nM

>  <reading.qualifier>
<

>  <IC50>
3

$$$$
>  <compound>
CN(C(=O)C(O)c1ccccc1)c1ccc2cc(-c3n[nH]c4c3CCC(C)(C)C4)[nH]c2c1 (stereo not shown)

>  <assayed.target>
hITK enzyme (FLAG-tagged full-length hITK) (Homo sapiens)

>  <unit.symbol>
nM

>  <reading.qualifier>
=

>  <IC50>
7

$$$$
>  <compound>
CCC(=O)N(C)c1ccc2cc(-c3n[nH]c4c3CCCC4)[nH]c2c1

>  <assayed.target>
hITK enzyme (FLAG-tagged full-length hITK) (Homo sapiens)

>  <unit.symbol>
nM

>  <reading.qualifier>
=

>  <IC50>
24

$$$$
